read-out: X-box binding protein 1 (XBP1), XBP1 (gene 7494); experiment: LTEA_HepaRG_XBP1: Life Technologies and Expression Analysis (LTEA) Assay for X-box binding protein 1 (XBP1) using HepaRG (AID 2283540); conditions: mRNA level, 48 h; actives raise or lower the signal
Active and inactive are the calls of the source. How the source made its calls: active means hit-call score of the fitted dose curve at least 0.9, where 1 is the maximum; inactive means score below 0.9.
Give one outcome, nothing more. List: active, inactive

Observe how each entry below is paired with its result.
Each compound tested received a call. Report the one for CCOC(=O)C(C)(C)Oc1ccc(Cl)cc1 .
inactive

Each compound tested received a call. Report the one for Cc1c(C(=O)O)c(O)cc2c1C(=O)c1c(O)c([C@@H]3O[C@H](CO)[C@@H](O)[C@H](O)[C@H]3O)c(O)c(O)c1C2=O .
inactive

Each compound tested received a call. Report the one for c1cc(-c2ccncc2)ccn1 .
inactive

Each compound tested received a call. Report the one for Cc1ccccc1Cl .
inactive

Each compound tested received a call. Report the one for CC=Cc1ccc(O)c(OC)c1 .
inactive

Next:
Each compound tested received a call. Report the one for O=C(N[C@@H](Cc1ccccc1)[C@@H](O)C(=O)N1C[C@@H](O)[C@@H](O)C1)c1cc2cc(Cl)ccc2[nH]1 .
active

Each compound tested received a call. Report the one for COc1ccc(C)cc1N .
inactive

Each compound tested received a call. Report the one for CCCCc1ccc2c(n1)[C@@H](c1ccc(OC)cc1C[C@H](C)C(=O)O)[C@H](C(=O)O)[C@H]2c1ccc2c(c1)OCO2 .
inactive

Each compound tested received a call. Report the one for Cc1ccc2ncccc2c1 .
inactive

Each compound tested received a call. Report the one for CCCCCCCCCCC .
inactive

Each compound tested received a call. Report the one for CC(CO)OC(C)CO (centres undefined) (tested in a mixture with another compound) .
inactive

Each compound tested received a call. Report the one for O=c1[nH]cc(F)c(=O)[nH]1 .
inactive

Each compound tested received a call. Report the one for COc1ccc2c(c1)c(CC(=O)O)c(C)n2C(=O)c1ccc(Cl)cc1 .
inactive

Each compound tested received a call. Report the one for Cc1cc(NC(=O)C(=O)O)cc(C)c1Oc1ccc(O)c2c1CCC2 .
inactive

###

assay: APR_HepG2_NuclearSize_24hr: Apredica 24-hour HepG2 Assay for Nuclear Size (AID 2282907); settings: high-content imaging, actives raise or lower the signal
Activity calls are given as the source filed them. Rule for the calls: active = hit-call score of the fitted dose curve at least 0.9, where 1 is the maximum; inactive = score below 0.9.
Give one outcome, nothing more. List: 1 = active, 0 = inactive

Observe how each entry below is paired with its result.
Each compound tested received a call. Report the one for O=C(O)Cc1ccccc1Nc1c(Cl)cccc1Cl .
0

Each compound tested received a call. Report the one for Cc1ccc(Cl)cc1 .
0

Each compound tested received a call. Report the one for Cc1ccccc1Cl .
0

Each compound tested received a call. Report the one for CN1CCCC1=O .
0

Each compound tested received a call. Report the one for CC=Cc1ccc(O)c(OC)c1 .
0

Each compound tested received a call. Report the one for COc1cccc2c1C(=O)c1c(O)c3c(c(O)c1C2=O)C[C@@](O)(C(=O)CO)C[C@@H]3O[C@H]1C[C@H](N)[C@H](O)[C@H](C)O1 .
0

Each compound tested received a call. Report the one for COC(=O)c1ccc(O)cc1 .
0

Each compound tested received a call. Report the one for O=C(N[C@@H](Cc1ccccc1)[C@@H](O)C(=O)N1C[C@@H](O)[C@@H](O)C1)c1cc2cc(Cl)ccc2[nH]1 .
0

Each compound tested received a call. Report the one for Cc1ccc(C)c(C)c1 .
0

Each compound tested received a call. Report the one for COc1ccc(S(=O)(=O)N2C(=O)[C@@](c3ccccc3OC)(N3C[C@H](O)C[C@H]3C(=O)N(C)C)c3cc(Cl)ccc32)c(OC)c1 .
1

Next:
Each compound tested received a call. Report the one for COc1ccc2c(c1)c(CC(=O)O)c(C)n2C(=O)c1ccc(Cl)cc1 .
0

Each compound tested received a call. Report the one for Nc1ccc(S(=O)(=O)c2ccc(N)cc2)cc1 .
0

Each compound tested received a call. Report the one for CCCCCCOCCO .
0

Each compound tested received a call. Report the one for CC(C)c1ccc(C(=O)N=C(N)N)cc1S(C)(=O)=O .
0
